The following compounds are listed with their measured Ki values.
subjectOfTest: GSK-3β (AA 1-420) (Homo sapiens)
Construct: GSK-3β (AA 1-420)
methodNotes: Ki determination for the inhibition of GSK-3 (coupled enzyme system)
Type: biochemical
conditionParameters: 20 μM ATP, 300 μM peptide, 20 nM GSK-3β, 30° C

Example results:
> print(dat)
                            structurestring  valuekind  measuredresult
1  FC(F)(F)c1ccccc1-c1nc(Nc2cc(-c3ccccc3)[nH]n2)c2ccccc2n1         Ki  100 to 1000 nM
2  FC(F)(F)c1ccc2[nH]nc(Nc3nc(-c4ccccc4C(F)(F)F)nc4c3CCCC4)c2c1         Ki        < 100 nM
3  Cc1cc(Nc2nc(-c3ccccc3C)nc3ccccc23)n[nH]1         Ki        < 100 nM

// returns Ki for O=C(NCCO)c1cc(Nc2nc(-c3ccccc3)nc3ccccc23)[nH]n1 with GSK-3β (AA 1-420) (Homo sapiens); value = 1000 to 20000 nM

GSK-3β (AA 1-420) (Homo sapiens) Ki of Fc1ccc2[nH]nc(Nc3nc(-c4ccccc4C(F)(F)F)nc4c3CCNC4)c2c1 is < 100 nM

Record Cc1cc(Nc2nc(-c3ccncc3)nc3ccc(Cl)cc23)[nH]n1 / GSK-3β (AA 1-420) (Homo sapiens), Ki recorded as 100 to 1000 nM

Item Cc1cc(Nc2nc(-c3ccc(C#N)cc3)nc3ccccc23)[nH]n1 ; assay system GSK-3β (AA 1-420) (Homo sapiens); Ki reported as < 100 nM

Form field, Ki with GSK-3β (AA 1-420) (Homo sapiens), item Cc1cc(Nc2nc(-c3cccc(C#N)c3)nc3ccccc23)[nH]n1 : < 100 nM

Case Cc1cc(Nc2nc(N3CCC(O)CC3)nc3ccccc23)[nH]n1 , GSK-3β (AA 1-420) (Homo sapiens), Ki recorded as 100 to 1000 nM

Hey, GSK-3β (AA 1-420) (Homo sapiens) data for Fc1cccc2c(Nc3nc(-c4ccccc4C(F)(F)F)nc4ccccc34)n[nH]c12 : Ki came out at < 100 nM

###

// reported pKi for each item listed
Protein target, amino acids: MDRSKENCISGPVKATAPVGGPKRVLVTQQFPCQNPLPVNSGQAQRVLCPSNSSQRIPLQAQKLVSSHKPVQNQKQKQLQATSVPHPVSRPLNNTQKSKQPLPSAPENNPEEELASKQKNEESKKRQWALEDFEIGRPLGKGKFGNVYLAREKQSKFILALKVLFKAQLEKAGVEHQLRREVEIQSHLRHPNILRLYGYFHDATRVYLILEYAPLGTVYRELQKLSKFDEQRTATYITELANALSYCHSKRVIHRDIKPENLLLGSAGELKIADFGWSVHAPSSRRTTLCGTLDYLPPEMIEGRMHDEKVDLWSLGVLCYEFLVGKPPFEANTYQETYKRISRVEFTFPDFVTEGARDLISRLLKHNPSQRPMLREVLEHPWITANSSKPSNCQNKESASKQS
pKi: −log10 of the molar value.

get_value(item= Cc1cc(Nc2nc(-c3ccccc3C(F)(F)F)nc3ccccc23)n[nH]1 , readout=pKi) returns > 7.00

pKi in this record for FC(F)(F)c1ccccc1-c1nc(Nc2nc[nH]n2)c2ccccc2n1 : 4.70 to 6.00

Summary for this compound, Cc1cc(Nc2nc(C3CCCCC3)nc3ccccc23)[nH]n1 : pKi is > 7.00

# compound Brc1cn[nH]c1Nc1nc(-c2ccccc2)nc2ccccc12 ; its pKi = 4.70 to 6.00

compound CC(=O)c1cccc(-c2nc(Nc3cc(C)n[nH]3)c3ccccc3n2)c1 , pKi observed: > 7.00

Kindly note the recorded pKi for C#Cc1ccc(-c2nc(Nc3cc(C)n[nH]3)c3ccccc3n2)cc1 , which is > 7.00

get_value(item= FC(F)(F)c1ccccc1-c1nc(Nc2n[nH]c3ccccc23)cc(-c2ccncc2)n1 , readout=pKi) returns 4.70 to 6.00

###

valueKind: melting point

> print(dat)
                            structurestring      valuekind  measuredresult
1  Cc1cc(Nc2nc(-c3ccc(C(C)(C)C)cc3)nc3ccccc23)[nH]n1  melting point        > 300 °C
2    c1ccc2c(Nc3ccn[nH]3)nc(-c3ccncc3)nc2c1  melting point   285 to 286 °C
3         Cc1cc(Nc2ccnc(-c3ccccc3)n2)n[nH]1  melting point   245 to 246 °C

Reported melting point of CC(C)(C)c1cc(Nc2nc(-c3ccncc3)nc3ccccc23)[nH]n1 : > 300 °C

Field melting point (entry COC(=O)c1cc(Nc2nc(-c3ccccc3)nc3ccccc23)[nH]n1 ) reads 271 to 273 °C

Consider Cc1cc(Nc2nc(N3CCOCC3)nc3ccccc23)[nH]n1 . Its measured melting point is 223 to 224 °C

Value of melting point reported for the compound C#Cc1cccc(-c2nc(Nc3cc(C)n[nH]3)c3ccccc3n2)c1 is 204 to 207 °C

###

subjectOfTest: GSK-3β (AA 1-420) (Homo sapiens, UniProt P49841)
Sequence (P49841 whole entry, the tested form may be a part): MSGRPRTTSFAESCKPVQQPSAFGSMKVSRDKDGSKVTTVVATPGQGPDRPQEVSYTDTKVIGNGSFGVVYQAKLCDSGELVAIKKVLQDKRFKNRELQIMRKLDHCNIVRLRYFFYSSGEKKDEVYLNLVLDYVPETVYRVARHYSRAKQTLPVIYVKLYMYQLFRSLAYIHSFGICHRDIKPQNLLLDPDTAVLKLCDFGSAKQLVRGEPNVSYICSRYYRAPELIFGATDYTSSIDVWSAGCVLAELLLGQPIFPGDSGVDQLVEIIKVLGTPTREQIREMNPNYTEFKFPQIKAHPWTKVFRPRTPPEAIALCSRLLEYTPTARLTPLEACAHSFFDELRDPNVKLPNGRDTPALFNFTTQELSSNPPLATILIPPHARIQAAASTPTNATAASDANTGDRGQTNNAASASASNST
valueKind: Ki

Recorded Ki, per entry:
> print(dat)
                                   compound  measuredresult
1  Cc1nc(Nc2nc(-c3ccccc3C(F)(F)F)nc3ccccc23)n[nH]1 [IX-38]     0.1 to 1 µM
2  N#Cc1cn[nH]c1Nc1nc(-c2ccccc2)nc2ccccc12 [III-103]      1 to 20 µM
3  Fc1c(C(F)(F)F)ccc2c(Nc3nc(-c4ccccc4C(F)(F)F)nc4ccccc34)n[nH]c12 [II-81]        < 0.1 µM

Response field Ki (GSK-3β (AA 1-420) (Homo sapiens, UniProt P49841)) for item FC(F)(F)c1ccccc1-c1nc(Nc2n[nH]c3c2CCCC3)c2ccccc2n1 [II-97] : 0.1 to 1 µM

Bench note, GSK-3β (AA 1-420) (Homo sapiens, UniProt P49841): O=c1cc2[nH]nc(Nc3nc(-c4ccccc4)nc4ccccc34)c2nn1-c1ccc(Cl)cc1Cl [III-137] , Ki reads 1 to 20 µM

###

Measured Ki of individual entries
Target protein (sequence): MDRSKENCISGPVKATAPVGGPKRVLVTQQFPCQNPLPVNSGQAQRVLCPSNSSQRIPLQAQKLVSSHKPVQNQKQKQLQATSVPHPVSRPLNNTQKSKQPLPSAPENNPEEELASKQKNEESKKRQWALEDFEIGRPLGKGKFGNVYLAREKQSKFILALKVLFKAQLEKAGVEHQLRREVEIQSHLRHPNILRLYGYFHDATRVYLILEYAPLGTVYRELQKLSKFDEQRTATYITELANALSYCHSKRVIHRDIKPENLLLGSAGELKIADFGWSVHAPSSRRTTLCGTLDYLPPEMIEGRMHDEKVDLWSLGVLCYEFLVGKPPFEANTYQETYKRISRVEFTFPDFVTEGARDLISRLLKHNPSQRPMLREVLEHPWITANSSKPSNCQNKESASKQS

Worked cases, answers included:
> print(dat)
                                   compound    measuredresult
1  NCCCc1cc(Nc2nc(-c3ccccc3)nc3ccccc23)[nH]n1 [III-79]  1000 to 20000 nM
2  COCc1cc(Nc2nc(-c3ccccc3)nc3ccccc23)[nH]n1 [III-75]    100 to 1000 nM
3  Cc1cc(Nc2nc(-c3ccc(Cl)c(Cl)c3)nc3ccccc23)[nH]n1 [III-33]          < 100 nM
4  FC(F)(F)c1ccccc1-c1cc2ccccc2c(Nc2n[nH]c3ccccc23)n1 [Compound V-2]  1000 to 20000 nM
5  Cc1cc(Nc2nc(-c3ccc(Cl)cc3)nc3ccccc23)[nH]n1 [III-35]          < 100 nM

Continue with the next compound.
Sample Cc1cc(Nc2nc(-c3ccc(Br)cc3)nc3ccccc23)[nH]n1 [III-34] ; Ki observed: < 100 nM

###

subjectOfTest: GSK-3β (AA 1-420) (Homo sapiens)
pKi: −log10 of the molar value.
Quick list: pKi per entry.

> print(dat)
                            structurestring                     subjectoftest  measuredresult
1  Cc1cc(Nc2nc(-c3cccc(C(C)C)c3)nc3ccccc23)[nH]n1  GSK-3β (AA 1-420) (Homo sapiens)          > 7.00
2  Fc1cccc2c(Nc3nc(-c4ccccc4C(F)(F)F)nc4c3CCC4)n[nH]c12  GSK-3β (AA 1-420) (Homo sapiens)          > 7.00

Per the records, this molecule ( N#Cc1ccccc1-c1nc(Nc2n[nH]c3ccccc23)c2ccccc2n1 ) has pKi equal to > 7.00

Documented pKi of Nc1ccc(-c2nc(Nc3n[nH]c4c(F)cc(F)cc34)c3ccccc3n2)c(Cl)c1 : > 7.00

Looking up Cc1cc(Nc2nc(-c3cccc(I)c3)nc3ccccc23)[nH]n1 , I found its pKi recorded as > 7.00

Record CC1CCN(c2nc(Nc3cc(C4CC4)n[nH]3)c3nccc-3[nH]2)CC1 , field pKi: > 7.00

So, Fc1ccc(-c2nc(Nc3n[nH]c4c(F)cc(F)cc34)c3ccccc3n2)c(C(F)(F)F)c1 ? Its pKi was > 7.00

response.value for c1ccc(-c2nc(Nc3cc(C4CCCC4)n[nH]3)c3ccccc3n2)cc1 (field: pKi) = > 7.00

# molecule FC(F)(F)c1ccccc1-c1nc(Nc2nc[nH]n2)c2ccccc2n1 ; its pKi = > 7.00

The value of pKi measured for the molecule Fc1cc(F)c2[nH]nc(Nc3nc(-c4cc(C(F)(F)F)ccc4Cl)nc4ccccc34)c2c1 turned out to be > 7.00
